Measured inhibition, listed per entry.
- System: virus influenza A
- assay.protocol: microbe, parasite or virus in culture
- Type: cell-based
- Parameters: dose or concentration left out as unconfirmed
- condition.parameters: Influenza A virus, MDCK, dilution of virus 10^-3, read-out: % of inhibition of influenza A virus reproduction

# molecule, reported.metric, val
rows = [
    ("CCOC(=O)c1c(CNc2ccc(C)cc2)n(C)c2cc(Br)c3c(c12)CN(C)CO3", "inhibition", "100%"),
    ("CCOC(=O)c1c(CNc2ccccc2)n(C)c2cc(C#N)c3c(c12)CN(C)CO3", "inhibition", "< 50%"),
    ("CCOC(=O)c1c(CSc2ccccc2)n(C)c2cc(-c3cncc4ccccc34)c(O)c(CN(C)C)c12", "inhibition", "88%"),
    ("CCOC(=O)c1c(CN2CCCC2)n(C2CCCCC2)c2cc(Br)c3c(c12)CN(C)CO3", "inhibition", "81%"),
    ("CCOC(=O)c1c(CN(C)CCO)n(C)c2cc(Br)c3c(c12)CN(C)CO3", "inhibition", "90%"),
    ("CCOC(=O)c1c(CSc2ccccc2)n(C)c2cc(-c3cccnc3)c(O)c(CN(C)C)c12", "inhibition", "100%"),
]

Sample `CCOC(=O)c1c(CSc2ccccc2)n(C)c2cc(-c3ccc(OC)nc3)c(O)c(CN(C)C)c12` — what was its inhibition?
81%

Please give the result for `CCOC(=O)c1c(CN2CCCCC2)n(Cc2ccccc2)c2cc(Br)c3c(c12)CN(C)CO3` too.
100%

Please give the result for `CCOC(=O)c1c(CSc2ccccc2)n(C)c2cc(-c3ccncc3)c3c(c12)CN(C)CO3` too.
100%

Please give the result for `CCOC(=O)c1c(CN(C)C)n(-c2ccccc2)c2ccc3c(c12)CN(C)CO3` too.
77%

====

- System: virus influenza A
- assay.protocol: microbe, parasite or virus in culture
- Format: cell-based
- Design: dose or concentration left out as unconfirmed
- condition.parameters: Influenza A virus, MDCK, dilution of virus 10^-3, read-out: % of inhibition of influenza A virus reproduction
reported.metric: inhibition (%)
Report the figure in % without appending any unit label.

The cases that follow already have their inhibition on record.
# entry.smiles, experimental.system, val
data = [
    ("CCOC(=O)c1c(CSc2ccccc2)n(C2CCCCC2)c2cc(Br)c3c(c12)CN(C)CO3", "virus influenza A", 89),
    ("CCOC(=O)c1c(CS(=O)(=O)c2ccccc2)n(C)c2cc(Br)c3c(c12)CN(C)CO3", "virus influenza A", 88),
]

Sample `CCOC(=O)c1c(CSc2ccccc2)n(C)c2cc(-c3cncnc3)c3c(c12)CN(C)CO3` — what was its inhibition?
88

====

- Test system: virus influenza A
- assay.protocol: microbe, parasite or virus in culture
- Assay type: cell-based
- Design: dose or concentration left out as unconfirmed
- condition.parameters: Influenza A virus, MDCK, dilution of virus 10^-3, read-out: % of inhibition of influenza A virus reproduction
// label = true (1) if inhibition is not less than 80%, otherwise false (0)

Decide: is the reported value of inhibition for `CCOC(=O)c1c(CNc2ccncc2)n(C)c2cc(Br)c3c(c12)CN(C)CO3` equal to or greater than 80%?
true (1)

Please give the result for `CCOC(=O)c1c(Cn2ccnc2C)n(C)c2cc(Br)c3c(c12)CN(C)CO3` too.
true (1)

Please give the result for `CCOC(=O)c1c(CSc2ccccc2)n(C)c2cc(-c3ccc4[nH]ncc4c3)c(O)c(CN(C)C)c12` too.
false (0)

Please give the result for `CCOC(=O)c1c(CSc2ccccc2)n(C)c2cc(Br)c3c(c12)CN(C)CO3` too.
true (1)

Please give the result for CCOC(=O)c1c(CN2CCCCC2C)n(Cc2ccccc2)c2cc(Br)c3c(c12)CN(C)CO3 (stereo not shown) too.
false (0)

Please give the result for `CCOC(=O)c1c(CNc2ccccc2)n(C)c2cc(Br)c3c(c12)CN(C)CO3` too.
true (1)

Please give the result for `CN1COc2c(Br)cc3c(c2C1)c(C(=O)OC1CCCCC1)c(CNc1ccccc1)n3C` too.
false (0)
